Molecular target: PqsR (Pseudomonas aeruginosa, UniProt Q9I4X0)
Sequence (Q9I4X0 whole entry): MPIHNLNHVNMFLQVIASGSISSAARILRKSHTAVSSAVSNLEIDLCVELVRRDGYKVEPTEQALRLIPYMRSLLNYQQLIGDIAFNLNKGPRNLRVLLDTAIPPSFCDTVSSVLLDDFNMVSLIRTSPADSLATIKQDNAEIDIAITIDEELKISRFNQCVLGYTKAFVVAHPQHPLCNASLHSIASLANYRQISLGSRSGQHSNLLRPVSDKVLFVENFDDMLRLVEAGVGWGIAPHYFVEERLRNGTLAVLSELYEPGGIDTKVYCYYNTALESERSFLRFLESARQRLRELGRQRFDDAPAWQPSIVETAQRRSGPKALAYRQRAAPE
Experiment: E. coli based β-galactosidase reporter gene assay (PqsR inverse agonistic activity)
Type: cell-based
Design: expressed in transfected cells; host or cells: Escherichia coli DH5α
observation type: IC50

INSERT INTO assay_data (molecule, observed_value) VALUES
  ('CC(C)Oc1ccc(-c2ncc(CNc3ccnc(C#N)c3)s2)cc1Cl', '≤ 50 nM'),
  ('COc1ccc(-c2nc(CNc3ccnc(C(F)(F)F)c3)cs2)cc1', '251 to 1000 nM'),
  ('Nc1cc(SCc2nc3cc(Oc4ccccc4)ccc3[nH]2)cc(C(F)(F)F)n1', '≤ 50 nM'),
  ('CC(C)Oc1ccc(-c2ncc(CNc3cc(Cl)nc(C(F)(F)F)c3)cn2)cc1Cl', '≤ 50 nM'),
  ('FC(F)(F)c1cc(NCc2cnc(-c3ccc(C4CC4)cc3)nc2)ccn1', '51 to 250 nM'),
  ('COc1ncc(-c2nc(CNc3ccnc(C(F)(F)F)c3)cs2)cc1Cl', '51 to 250 nM'),
  ('COc1cc(SCc2nc3cc(Oc4ccccc4)ccc3[nH]2)nc(C(F)(F)F)n1', '251 to 1000 nM'),
  ('FC(F)(F)c1cc(NCc2nc3cc(Cl)c(Cl)cc3[nH]2)ccn1', '251 to 1000 nM'),
  ('COc1ccc(-n2cc(CNc3ccnc(C(F)(F)F)c3)nn2)cc1', '51 to 250 nM');
